pIC50: −log10 of the molar value.
Note to self: these compounds have pIC50 reported for Insulin-like growth factor 1 receptor (Homo sapiens, UniProt P08069) in various publications.

Some solved cases for reference:
                                   compound                               studysystem  resulttype  recordedvalue
0  Cc1c(Cl)cccc1OC[C@H](O)CNc1cc[nH]c(=O)c1-c1nc2cc3c(cc2[nH]1)C(=O)N(C1CCN(C)CC1)C3  Insulin-like growth factor 1 receptor (Homo sapiens, UniProt P08069)       pIC50         > 6.30
1  O=C1c2cc3nc(-c4c(NC[C@@H](O)c5cccc(Cl)c5)cc[nH]c4=O)[nH]c3cc2C(=O)N1CC1CCN(CCO)CC1  Insulin-like growth factor 1 receptor (Homo sapiens, UniProt P08069)       pIC50         > 6.30
2  CC(C)(CO)CN1C(=O)c2cc3nc(-c4c(NC[C@@H](O)c5cccc(Cl)c5)cc[nH]c4=O)[nH]c3cc2C1=O  Insulin-like growth factor 1 receptor (Homo sapiens, UniProt P08069)       pIC50   5.30 to 6.30
3  CN1CCC(n2nc(-c3ccc4ccc(-c5ccccc5)nc4c3)c(C(N)=O)c2N)CC1  Insulin-like growth factor 1 receptor (Homo sapiens, UniProt P08069)       pIC50   4.70 to 6.00
4  CN1CCC(N2C(=O)c3cc4nc(-c5c(NCC(O)COc6cccc(Cl)c6)cc[nH]c5=O)[nH]c4cc3C2=O)CC1 (stereo not shown)  Insulin-like growth factor 1 receptor (Homo sapiens, UniProt P08069)       pIC50   5.30 to 6.30
5  COc1cc(N2CCOCC2)c(C#N)cc1Nc1ncc(Br)c(Nc2ccc3nc(C4CC4)ccc3c2P(C)(C)=O)n1  Insulin-like growth factor 1 receptor (Homo sapiens, UniProt P08069)       pIC50           6.14
6  O=C1CCCN1C1CC(c2ccccc2Cl)N2CCc3cc(F)cc1c32 (stereo not shown)  Insulin-like growth factor 1 receptor (Homo sapiens, UniProt P08069)       pIC50           5.35
7  CN1CCC(N2C(=O)c3cc4nc(-c5c(NC[C@@H](O)COc6ccc(C#N)c(Cl)c6)ccnc5O)[nH]c4cc3C2=O)CC1  Insulin-like growth factor 1 receptor (Homo sapiens, UniProt P08069)       pIC50   5.30 to 6.30

Okay, now this compound:
Give the reported pIC50 for `COc1cccc(OC[C@H](O)CNc2cc[nH]c(=O)c2-c2nc3cc4c(cc3[nH]2)C(=O)N(C2CCN(C)CC2)C4)c1C` (system: Insulin-like growth factor 1 receptor (Homo sapiens, UniProt P08069)).
> 6.30
